Assay: Ratio of drug level in brain to plasma of rat at 1 mg/kg, iv
Assay type: ADME, organism-based
Parameters: dose 1 mg/kg, route intravenous
Settings: read-out: BPR
observation-type: Kp
// no unit, no text: just the number

Quick note, Kp for "CCC(CC)Nc1nc(C)c(-c2ccc(OC(F)(F)F)cc2OC)nc1OC" landed at 5.4

###

Target: Corticotropin-releasing factor receptor 1 (Homo sapiens, UniProt P34998)
Sequence (P34998 whole entry): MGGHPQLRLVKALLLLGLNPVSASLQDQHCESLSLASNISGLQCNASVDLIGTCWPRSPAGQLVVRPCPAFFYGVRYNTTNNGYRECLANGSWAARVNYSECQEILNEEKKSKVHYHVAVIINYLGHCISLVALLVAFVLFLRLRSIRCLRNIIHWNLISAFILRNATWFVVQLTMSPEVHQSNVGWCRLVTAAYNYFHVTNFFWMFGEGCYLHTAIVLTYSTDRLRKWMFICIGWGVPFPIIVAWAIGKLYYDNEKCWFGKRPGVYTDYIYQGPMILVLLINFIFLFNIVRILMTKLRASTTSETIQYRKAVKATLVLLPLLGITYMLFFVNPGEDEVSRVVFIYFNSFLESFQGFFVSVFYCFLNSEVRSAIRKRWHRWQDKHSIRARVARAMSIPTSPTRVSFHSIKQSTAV
Assay: Displacement of [125I]-sauvagine from human CRF-1 receptor expressed in human IMR-32 cells after 2 hrs by scintillation counting
Type: cell-based
Under this convention, 1 (yes) denotes Ki strictly below 20 nM and 0 (no) denotes Ki at or above 20 nM.

Query: Please state whether Ki is below 20 nM for "CCCN(CC1CC1)c1nc(CC)c(-c2ccc(Cl)cc2Cl)nc1CC"
Response: 1 (yes)

Query: Here's an entry: "CCC(CC)Nc1nc(OC)c(-c2ccc(Cl)cc2Cl)nc1C" . Is its Ki below 20 nM?
Response: 1 (yes)

Query: Determine if "CCc1nc(NC(CC)CC)c(Cl)nc1-c1ccc(Cl)cc1Cl" shows Ki strictly lower than 20 nM.
Response: 0 (no)

Query: For this compound, is Ki lower than 20 nM? "CCc1nc(-c2ccc(OC)nc2OC)c(CC)nc1NC(CC)CC"
Response: 1 (yes)

Query: Hello, I'm reviewing records and need to know if Ki of "CCc1nc(-c2ccc(OC(F)(F)F)cc2OC)c(OC)nc1NC(CC)CC" is below 20 nM. Could you check?
Response: 1 (yes)

Query: Below 20 nM on Ki? Entry CCc1nc(-c2ccc(Cl)cc2Cl)c(CC)nc1NC(C)CN(C)C (stereo not drawn)
Response: 0 (no)

Query: Record "CCc1nc(-c2ccc(C)cc2OC)c(CC)nc1NC(CC)CC" : is its Ki strictly below 20 nM?
Response: 0 (no)

Query: Determine if "CCc1nc(-c2ccc(OC)cc2O)c(CC)nc1NC(CC)CC" shows Ki strictly lower than 20 nM.
Response: 0 (no)

###

Answer each item with its documented Ki.
Biological target: Corticotropin-releasing factor receptor 1 (Homo sapiens, UniProt P34998)
Assay: Antagonist activity at human CRF-1 receptor
Assay type: functional
Form entry: value (nM) — number only.

Sample "CCCC(CCC)N1CCn2nc(-c3ccc(Cl)cc3Cl)c3nc(C)cc1c32" ; Ki observed: 4

The recorded Ki for "CCCN(CCC)c1c(C)ncc2c(-c3ccc(Cl)cc3Cl)cccc12" is 103

GET /value?item= "COCC(COC)Nc1nc(C)nc2c(-c3ccc(Cl)cc3Cl)c(C)nn12" &field=Ki returns 2

###

Assay: Cmax in rat at 1 mg/kg, iv
Format: ADME, organism-based
Set-up: dose 1 mg/kg, route intravenous
Details: in vivo
observation-type: Cmax (ng/mL)
Unit ng/mL implied. Number only.

For reference, reported Cmax for "CCC(CC)Nc1nc(C)c(-c2ccc(OC(F)(F)F)cc2OC)nc1OC" stands at 456

###

Experiment: AUC (0 to 24 hrs) in rat at 5 mg/kg, po
Assay type: ADME, organism-based
Parameters: time < 24 hr, dose 5 mg/kg, route oral
Details: plasma
observation-type: AUC(0-t) at 24 h (ng·h/mL)
Your answer should be a plain number; it is taken to be in ng·h/mL.

AUC(0-t) at 24 h in this record for "CCc1nc(-c2ccc(Cl)cc2Cl)c(CC)nc1NC(CC)CC" : 4310

###

Please provide measured log10(half-life) for the entries that follow.
Assay: Half life in human microsomes
Format: ADME, Microsome
// stored as log10 of half-life expressed in min

What the record says about "CCc1nc(-c2ccc(Cl)cc2Cl)c(CC)nc1NC(C1CC1)C1CC1" : log10(half-life) is 1.04

Documented log10(half-life) of "CCc1nc(-c2ccc(Cl)cc2Cl)c(CC)nc1NC(CC)CC" : 1.23

The recorded log10(half-life) for entry "CCc1nc(N(CCOC)CCOC)c(CC)nc1-c1ccc(Cl)cc1Cl" equals 0.30

Given item "CCCCc1nc(-c2ccc(Cl)cc2Cl)c(CC)nc1NC(CC)CC" , the value recorded as its log10(half-life) is 1.34

Per the records, this compound ( "CCc1nc(NC(CC)CC)cnc1-c1ccc(Cl)cc1Cl" ) has log10(half-life) equal to 1.45

Just so you know, measured log10(half-life) for "CCOc1nc(-c2ccc(Cl)cc2Cl)c(CC)nc1NC(CC)CC" came out at 2.08

Lab book: log10(half-life) of "CCc1nc(-c2ccc(OC)cc2OC)c(CC)nc1NC(CC)CC" noted as 0.90

Entry under test: "CCc1nc(-c2ccc(OC(F)F)cc2Cl)c(OC)nc1NC(CC)CC" . Its log10(half-life) was 2.08

###

Would you kindly list half-life for each of these molecules?
Test: Half life in human microsomes
Type: ADME, Microsome

Recorded result, "CCc1nc(-c2ccc(OC(C)C)cc2OC)c(CC)nc1NC(CC)CC" , half-life: 11 min

"CCOc1ccc(-c2nc(OC)c(NC(CC)CC)nc2C)c(Cl)c1" has a reported half-life of 120 min

The molecule listed as "CCCN(CC1CC1)c1nc(CC)c(-c2ccc(Cl)cc2Cl)nc1CC" shows half-life equal to 12 min

Form field half-life, entry "CCc1nc(NC(CC)CC)c(OC)nc1-c1ccc(Cl)cc1Cl" : 35 min

Reported half-life for "CCc1nc(-c2ccc(Cl)cc2Cl)c(CC)nc1NC(COC)COC" was 9 min

What the record says about "CCc1nc(-c2cnc(C)cc2N(C)C)c(CC)nc1NC(CC)CC" : half-life is 7 min

// sample "CCc1nc(-c2ccc(OC)cc2C(F)(F)F)c(CC)nc1NC(CC)CC" , its half-life was 12 min

Quick note, half-life for "CCc1nc(NC(CC)CC)c(F)nc1-c1ccc(Cl)cc1Cl" landed at 73 min

Reported half-life for "CCc1nc(-c2ccc(OC)cc2O)c(CC)nc1NC(CC)CC" was 18 min

So, "CCc1nc(NC(CC)CC)c(C)nc1-c1ccc(Cl)cc1Cl" ? Its half-life was 27 min

Recorded result, "CCc1nc(-c2cnc(OC)nc2OC)c(CC)nc1NC(CC)CC" , half-life: 7 min

Reported half-life for "CCc1nc(-c2ccc(OC(F)(F)F)cc2OC)c(OC)nc1NC(CC)CC" was 52 min

Noted for "CCc1nc(-c2ccc(C)cc2OC)c(CC)nc1NC(CC)CC" : its half-life reads 11 min

###

Molecular target: Corticotropin-releasing factor receptor 1 (Homo sapiens)
Assay: Displacement of [125I]-sauvagine from human CRF-1 receptor expressed in human IMR-32 cells after 2 hrs by scintillation counting
Type: cell-based
Each entry falls into one class according to its Ki; the ranges are bin 0: < 2 nM; bin 1: ≥ 2 nM and < 8 nM; bin 2: ≥ 8 nM

Query: For "CCc1nc(NC(CC)CC)c(OC)nc1-c1ccc(OC(F)F)cc1Cl" , which Ki bin applies?
Response: bin 0

Query: Which class holds "CCc1nc(-c2ccc(C(F)(F)F)cc2OC)c(CC)nc1NC(CC)CC" ?
Response: bin 1

Query: For "CCc1nc(-c2cnc(C)cc2N(C)C)c(CC)nc1NC(CC)CC" , which Ki bin applies?
Response: bin 1

Query: Into which bin does this compound go? "CCc1nc(-c2ccc(OC)cc2Cl)c(OC)nc1NC(CC)CC"
Response: bin 0

Query: Note: place this compound into its band. Item: "CCc1cc(OC)ccc1-c1nc(OC)c(NC(CC)CC)nc1CC"
Response: bin 0

Query: Quick check: band for "CCc1nc(-c2ccc(OC)cc2C(F)(F)F)c(CC)nc1NC(CC)CC"
Response: bin 1

Query: Assign a category based on measured Ki for "CCc1nc(-c2ccc(Cl)cc2Cl)c(C)nc1NC(CC)CC" and give only the class name.
Response: bin 2

Query: Looking at "CCC(CC)Nc1nc(C)c(-c2ccc(Cl)cc2Cl)nc1C" , which class would you pick?
Response: bin 2

###

Assay: Half life in rat microsomes
Type: ADME, Microsome
observation-type: half-life (min)
Express the result in min but write the number alone.

Query "CCc1nc(-c2ccc(OC)nc2OC)c(CC)nc1NC(CC)CC" yields half-life of 2.5

Sample "CCc1nc(-c2ccc(Cl)cc2Cl)c(CC)nc1NC(COC)COC" ; half-life observed: 2.5

The compound listed as "CCc1nc(NC(CC)CC)c(OC)nc1-c1ccc(C(F)(F)F)cc1OC" shows half-life equal to 23

Measured half-life of "CCC(CC)Nc1nc(OC)c(-c2ccc(Cl)cc2Cl)nc1OC" : 2.5

The value of half-life measured for the compound "CCCN(CC1CC1)c1nc(CC)c(-c2ccc(Cl)cc2Cl)nc1CC" turned out to be 4.2
